Test system: NIH3T3
experiment_summary: Cytotoxic Profiling of Annotated Libraries Using Quantitative High-Throughput Screening (AID 1296008); also: nearly all actives have a fitted effect of over 60% in size
particulars: Five cell lines viability, CellTiter-Glo ATP luminescence, 48-72 h
Experimental: Cell-based phenotypic screening is a commonly used approach to discover biological pathways, novel drug targets, chemical probes and high-quality hit-to-lead molecules. […] A pintool (Kalypsys) was used to transfer 23 nL of compound solution to the 1536-well assay plates. […] Plates were left at room temperature for 10 min before imaging the ATP-coupled luminescence using a ViewLux microplate imager (PerkinElmer, Waltham, MA).
Results filed as inconclusive are left out. Calls of active or inactive are those of the source. Calls follow the shape of the dose curve; as a rule, active = well fitted inhibition curve with a large enough effect; inconclusive = small, poorly fitted or top-dose-only effect; inactive = flat fitted curve, though single readings scatter. Where a SMILES comes first, the peptide text is derived from it. The star is where a group is joined. Cbz = O=C(OCc1ccccc1)*; CH2F = FC*
test_readout: outcome

Some solved entries appear below for comparison.
{"columns": ["compound", "reported_value"],
 "data": [
  ["CC(=O)OC/C(=C/C(=O)O)CC[C@@H]1C(C)=CC(=O)[C@@H]2C(C)(C)CCC[C@@]12C", "inactive"],
  ["CCCC/C=C\\CCCCCc1cc(=O)c2ccccc2n1C", "inactive"],
  ["O=C(OC[C@H]1O[C@@H](Oc2ccccc2COC(=O)C2(O)C=CCCC2O)[C@H](O)[C@@H](O)[C@@H]1O)c1ccccc1 (stereo partly drawn)", "inactive"],
  ["O=C(O)c1cccc(C(=O)CCC2OC(n3cnc4c(=O)[nH]cnc43)C(O)C2O)c1 (stereo not drawn)", "inactive"],
  ["C=C1C(OC(C)=O)CCC2(C)CC3(O)OC(=O)C(C)=C3CC12 (stereo not drawn)", "inactive"]
]}

Qu. So what's the measured outcome for this one? C=C1CCC2C(C)(C(=O)OC)CCCC2(C)C1CCC1=CCOC1=O (stereo not drawn)
Ans. inactive

Qu. So what's the measured outcome for this one? O=C(NC1Cc2ccccc2N(C[C@@H](O)CO)C1=O)c1cc2cc(Cl)sc2[nH]1 (stereo partly drawn)
Ans. inactive

Qu. So what's the measured outcome for this one? COC(=O)CC[C@H](NC(=O)[C@H](CC(C)C)NC(=O)OCc1ccccc1)C(=O)N[C@@H](Cc1cnc[nH]1)C(=O)N[C@@H](CC(=O)OC)C(=O)CF (Cbz-LE(OMe)HD(OMe)-CH2F)
Ans. inactive

----------
System: HACAT
experiment_summary: qHTS assay to identify novel small-molecules to repurpose for Merkel cell carcinoma treatment (AID 1296009); also: nearly all actives have a fitted effect of over 60% in size
particulars: MCC and control cell lines, CellTiter-Glo viability, 72 h; at 44.8 µM (top of the series) unless noted
Records with an inconclusive call do not appear. The source made the active and inactive calls. The call rests on the fitted dose curve; in most records, active means well fitted inhibition curve with a large enough effect; inconclusive means small, poorly fitted or top-dose-only effect; inactive means flat fitted curve, though single readings scatter.
test_readout: outcome

Some solved entries appear below for comparison.
{"columns": ["compound", "assay_system", "reported_value"],
 "data": [
  ["C=Cc1ccc(O[C@@H]2O[C@H](CO[C@@H]3O[C@@H](C)[C@H](O)[C@@H](O)[C@H]3O)[C@@H](O)[C@H](O)[C@H]2O)cc1", "HACAT", "inactive [at 17.4 µM]"],
  ["Cc1c(-c2ccc3c(c2)OCO3)oc2ccc(C(O)C(C)O)cc12 (configuration not stated)", "HACAT", "inactive"],
  ["C=C1CCC2C(C)(C)CC(O)CC2(C)C1CCC(C)CC(=O)O (configuration not stated)", "HACAT", "inactive"],
  ["CC(C)=CCC[C@](C)(O[C@@H]1O[C@H](CO[C@@H]2O[C@@H](CO)[C@H](O)[C@H]2O)[C@@H](O)[C@H](O)[C@H]1O)[C@H]1CC[C@]2(C)[C@@H]1[C@H](O)C[C@@H]1[C@@]3(C)CC[C@H](O[C@@H]4O[C@H](CO)[C@@H](O)[C@H](O)[C@H]4O[C@@H]4O[C@H](CO)[C@@H](O)[C@H](O)[C@H]4O)C(C)(C)[C@@H]3CC[C@]12C", "HACAT", "inactive [at 17.4 µM]"],
  ["COCc1c(O)c(C(=O)O)c(C)c2c1OC(=O)c1c(C)cc(O)c(CO)c1O2", "HACAT", "inactive"]
]}

Qu. So what's the measured outcome for this one? `Cc1ccc([C@@H]2CC=C(C(=O)O)[C@H](c3ccc(C(C)(C)C)cc3)N2S(=O)(=O)c2ccc(C)cc2)cc1`
Ans. inactive

Qu. So what's the measured outcome for this one? C[C@H]1CC(=O)C2=C(C1)C(O)C(O)[C@@]1(O)[C@H]2C(=O)c2cccc(O)c2[C@@H]1O (some centres not stated)
Ans. inactive

----------
Tested on: HaCat
experiment_summary: Cytotoxic Profiling of Annotated Libraries Using Quantitative High-Throughput Screening (AID 1296008); also: nearly all actives have a fitted effect of over 60% in size; as to max response: % is scaled to controls: 0 for no effect and ±100 for the full control effect
particulars: Five cell lines viability, CellTiter-Glo ATP luminescence, 48-72 h; stronger effect = lower value
Records with an inconclusive call do not appear.
test_readout: max response (%)
Express the result in % but write the number alone.

Qu. So what's the measured max response for this one? CC(=O)OC1CCC2(C)C(CCC3(C)C2CC=C2C4CC(C)(C)CCC4(C)CCC23C)C1(C)C(=O)O (stereo not drawn)
Ans. -5.03

Qu. So what's the measured max response for this one? C/C(=C\C1CCC(C)C2CCC3(C)OC123)C(=O)O (stereo not drawn)
Ans. 4.2

Qu. So what's the measured max response for this one? CC(=O)O[C@@]1(C)[C@@H]2CC(=C(C)C)C(=O)C[C@@]2(C)CC[C@H]1OC(=O)C1(C)OC1C (stereo partly drawn)
Ans. 0.799

Qu. So what's the measured max response for this one? CC(C)=CCC(O)[C@](C)(O)C1[C@H](O)C[C@@]2(C)C3CC=C4C(C[C@H](O)[C@@H](O[C@@H]5O[C@H](CO)[C@@H](O)[C@H](O)[C@H]5O)C4(C)C)[C@]3(C)C(=O)C[C@]12C (stereo partly drawn)
Ans. -8.01

Qu. So what's the measured max response for this one? C/C=C(/C)C(=O)OC1C2OC2C2(CO2)C2C3OC(=O)C(C)C3CCC12C (stereo not drawn)
Ans. 3.73

Qu. So what's the measured max response for this one? COC(=O)CCC1(C)C(C(C)(C)O)C(O)CC2(C)Oc3c(C)c4c(c(OC)c3CC21)C(=O)OC4 (stereo not drawn)
Ans. -0.542

Qu. So what's the measured max response for this one? CC(NC(=O)CC(=O)O)C(=O)Nc1ccccc1C(N)=O (stereo not drawn)
Ans. -2.92

Qu. So what's the measured max response for this one? `c1ccc2c(Nc3nnc(-c4ccncc4)s3)cccc2c1`
Ans. -11.3

----------
Test system: NIH3T3
experiment_summary: Cytotoxic Profiling of Annotated Libraries Using Quantitative High-Throughput Screening (AID 1296008); also: nearly all actives have a fitted effect of over 60% in size; as to max response: % is scaled to controls: 0 for no effect and ±100 for the full control effect
particulars: Five cell lines viability, CellTiter-Glo ATP luminescence, 48-72 h; stronger effect = lower value
Records with an inconclusive call do not appear.
test_readout: max response (%)
Express the result in % but write the number alone.

Qu. So what's the measured max response for this one? `OC[C@@]1(O)CO[C@H](OC[C@H]2O[C@@H](OCCc3ccccc3)[C@H](O)[C@@H](O)[C@@H]2O)[C@@H]1O`
Ans. 5

Qu. So what's the measured max response for this one? C=C1CCC2[C@](C)(CO)CCC[C@@]2(C)[C@@H]1CCC1=CCOC1=O (some centres not stated)
Ans. -5.66

Qu. So what's the measured max response for this one? O=C(OC1C=C(CO)C2C(OC3OC(CO)C(O)C(O)C3O)OC=CC12O)c1ccc(O)cc1 (configuration not stated)
Ans. -4.5

Qu. So what's the measured max response for this one? `Cc1c(NC(=O)N2CCOCC2)ccc2c1c1ccccc1n2C(C)C`
Ans. -1.53

Qu. So what's the measured max response for this one? `CC(C)=CCc1c(O)cc2oc3cc(C)cc(O)c3c2c1C`
Ans. 3.67

Qu. So what's the measured max response for this one? `CC(=O)OC[C@@]12C(=O)C[C@@H](C)[C@]3(C[C@@H](c4ccoc4)OC3=O)[C@H]1CC[C@H](OC(C)=O)[C@]21CO1`
Ans. -0.126

Qu. So what's the measured max response for this one? `CCOc1ccc(-c2cc(NC(=O)c3c(F)cccc3F)c(C(=O)O)s2)cc1`
Ans. -24.8

Qu. So what's the measured max response for this one? COC(=O)C1=CO[C@@H](O[C@@H]2O[C@H](CO)[C@@H](O)[C@H](O)[C@H]2O)[C@@H]2[C@@H](CO)[C@@H](O)C(O)[C@H]12 (some centres not stated)
Ans. 1.79

Qu. So what's the measured max response for this one? COc1c2cc(c(O[C@@H]3O[C@H](CO)[C@@H](O)[C@H](O)[C@H]3O)c1OC)CCCCC(O)CCc1ccc(O)c-2c1 (some centres not stated)
Ans. 1.47

Qu. So what's the measured max response for this one? `O=C(Nc1ccc(N2CCC(C(=O)N3CCOCC3)CC2)cc1)c1cnc(Oc2ccccc2)nc1`
Ans. -17.6

Qu. So what's the measured max response for this one? `O=C(NCC(=O)N1CCCC1)Nc1ccc2ccccc2c1`
Ans. -1.06

Qu. So what's the measured max response for this one? CC1=CC(=O)CC(C)(C)C1CO[C@@H]1O[C@H](CO)[C@@H](O)[C@H](O)[C@H]1O (some centres not stated)
Ans. -1.71

Qu. So what's the measured max response for this one? COc1cc(C2Oc3c(OC)cc(CCCO)cc3C2CO)ccc1O (configuration not stated)
Ans. -0.27

Qu. So what's the measured max response for this one? CC(=O)OC1CC2(C)C(CCC(C)C23Cc2c(O)cc4c(c2O3)CNC4=O)C(C)(C)C1O (configuration not stated)
Ans. -10.8

Qu. So what's the measured max response for this one? `CC(C)N(CCCNC(=O)Nc1ccc(C(C)(C)C)cc1)C[C@H]1O[C@@H](n2ccc3c(N)ncnc32)[C@H](O)[C@@H]1O`
Ans. -13.2

Qu. So what's the measured max response for this one? `C=C1[C@H](OC(C)=O)[C@H]2[C@@H](OC(=O)c3ccccc3)[C@@H](C)C[C@]2(O)[C@@H](OC(C)=O)[C@H](C)/C=C/C(C)(C)C(=O)[C@H](OC(C)=O)[C@H]1OC(C)=O`
Ans. 3.53

Qu. So what's the measured max response for this one? `COc1ccc(-n2[nH]c3c(cnc4ccccc43)c2=O)cc1`
Ans. 3.94
